Target: T1, recombinant human PCSK9 protein, His-tagged (Immunogen A, hPCSK9-His) (human, UniProt Q8NBP7 31-692, limits assumed, biotin-labelled in the ELISA and blocking assays (Biotin labeling kit))
T1 construct: also called human PCSK9-His; recombinant hPCSK9-His; not shown: His tag
Test: blocking ELISA, biotin-hPCSK9-His on coated LDLR ECD-His; antibody 200 nM
Quantity Name: OD450 nm (PCSK9 bound to LDLR) (OD450 nm)

Binder	Quantity Name	Value
74C10A8, chimeric anti-PCSK9 mAb purified from hybridoma (antibody, V domains shown, From Harbour H2L2 mice: human variable regions, rat constant regions) VH: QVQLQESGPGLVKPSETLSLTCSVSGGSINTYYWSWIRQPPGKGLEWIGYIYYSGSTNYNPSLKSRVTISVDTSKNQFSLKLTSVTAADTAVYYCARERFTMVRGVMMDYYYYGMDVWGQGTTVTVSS VL: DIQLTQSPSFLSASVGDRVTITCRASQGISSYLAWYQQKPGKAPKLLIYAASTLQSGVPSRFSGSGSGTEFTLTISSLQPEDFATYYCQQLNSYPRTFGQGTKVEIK	OD450 nm (PCSK9 bound to LDLR)	0.55
139G1C5, chimeric anti-PCSK9 mAb purified from hybridoma (antibody, V domains shown, From Harbour H2L2 mice: human variable regions, rat constant regions) VH: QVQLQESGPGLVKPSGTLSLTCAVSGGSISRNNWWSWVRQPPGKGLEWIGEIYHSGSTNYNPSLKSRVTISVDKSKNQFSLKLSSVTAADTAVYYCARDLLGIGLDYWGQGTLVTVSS VL: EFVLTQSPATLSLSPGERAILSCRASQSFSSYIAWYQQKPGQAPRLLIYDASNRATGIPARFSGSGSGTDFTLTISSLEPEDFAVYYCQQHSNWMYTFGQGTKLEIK	OD450 nm (PCSK9 bound to LDLR)	0.63
152G2F7, chimeric anti-PCSK9 mAb purified from hybridoma (antibody, V domains shown, From Harbour H2L2 mice: human variable regions, rat constant regions) VH: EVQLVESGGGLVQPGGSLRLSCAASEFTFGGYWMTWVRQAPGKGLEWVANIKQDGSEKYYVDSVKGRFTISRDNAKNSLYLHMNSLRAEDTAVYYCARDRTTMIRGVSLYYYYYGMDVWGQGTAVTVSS VL: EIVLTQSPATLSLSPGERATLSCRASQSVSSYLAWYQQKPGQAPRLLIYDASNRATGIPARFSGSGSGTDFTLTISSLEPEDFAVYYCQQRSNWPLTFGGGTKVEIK	OD450 nm (PCSK9 bound to LDLR)	0.7
103C11E8, chimeric anti-PCSK9 mAb purified from hybridoma (antibody, V domains shown, From Harbour H2L2 mice: human variable regions, rat constant regions) VH: QVQLQESGPGLVKPSGTLSLTCAVSGGSISSSNWWSWVRQPPGKGLEWIGEIYHSGSTNYNPSLKSRVTISVDKSKNQFSLKLSSVTAADTAVYYCARGIAVAGTDVMDAWGQGASVTVSS VL: EIVLTQSPATLSLSPGERATLSCRASQSVSSYLVWYQQKSGQAPRLLIYGTSNRATGIPARFSGSGSGTDFTLTISSLEPEDFALYYCQQRGNWMYTFGQGTKLEIK	OD450 nm (PCSK9 bound to LDLR)	0.54
